Taken from PubChem BioAssay.

test system: glycogen synthase kinase-3 (GSK3A per assay name; protocol says GSK3B); assay: compounds binding glycogen synthase kinase-3 – biochemical, small-molecule microarray, 635 nm fluorescence, GSK3A, primary screen (AID 1103); conditions: fluorescence 635 nm, higher = more signal; note: the record names both GSK3A and GSK3B
Values of composite z-score greater than or equal to 0.06 map to yes; values below map to no.

Previously resolved entries follow.
>>> df
                                   compound  label
0  CN(C)CCCCNC(=O)[C@@H]1C[C@@H]2C(=O)N[C@@H](CCCCN)C(=O)N2[C@@H]1c1ccc(O)cc1    yes
1  COCC(=C=CC[C@@H](O)c1ccc(OCCO)cc1)C[C@@H](O)c1ccccn1    yes
2  O=C1OCC=C[C@H]2OC34C=CCN(CCN5CCOCC5)C(=O)[C@H]3N(CCO)C(=O)[C@@H]4[C@@H]12 (stereo partly drawn)     no
3  COc1cc(CO)cc(I)c1O[C@H]1C=C(C(=O)NCCO)C[C@@H](NC[C@@H]2CCCO2)[C@@H]1O     no
4  COc1ccc(NC(=O)O[C@H]2[C@H](OC(=O)c3cc4ccccc4[nH]3)[C@@H](OC(=O)c3cc4ccccc4[nH]3)[C@@H](OC)O[C@@H]2CO)cc1    yes
5  CC(C)[Si](C#CCCCC#N)(O[C@H](c1ccccc1)c1cn(Cc2cccc(Cl)c2)nn1)C(C)C    yes
6  COc1ccc([C@H]2C[C@H]3C(Br)=C[C@@]2(CO)C(=O)[C@]32CO2)cc1     no

Turning now to a further compound:
IN: Entry C[C@H]1C2[C@H](Cc3ccccc3)NC(=O)[C@]23C(=O)NCC(=O)N2CCC[C@H]2C(=O)NC/C=C/CCC/C=C/C3[C@@H]2O[C@]12C (stereo partly drawn) : is its composite z-score no less than 0.06?
OUT: no

---

target: Homeobox protein Hox-A13 (Mus musculus) (UniProt Q62424); assay: disruptors of Hoxa13 oligonucleotide interaction – biochemical, fluorescence polarization, labeled oligonucleotide, primary screen (AID 1185); conditions: Hoxa13:DNA binding, 15 min, higher = more signal, called active from +8 up or from −8 down
Sequence (Q62424 whole entry, looked up): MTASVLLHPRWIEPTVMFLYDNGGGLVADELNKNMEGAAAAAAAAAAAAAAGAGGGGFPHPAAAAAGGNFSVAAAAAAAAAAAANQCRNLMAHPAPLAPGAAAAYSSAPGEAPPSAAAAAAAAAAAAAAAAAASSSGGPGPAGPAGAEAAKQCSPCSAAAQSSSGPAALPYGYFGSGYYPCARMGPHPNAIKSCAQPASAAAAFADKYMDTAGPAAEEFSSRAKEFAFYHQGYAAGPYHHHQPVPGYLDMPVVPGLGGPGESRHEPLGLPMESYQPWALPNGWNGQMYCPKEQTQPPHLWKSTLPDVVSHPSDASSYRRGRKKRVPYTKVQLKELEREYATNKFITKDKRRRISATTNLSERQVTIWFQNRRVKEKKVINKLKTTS
Answer each item with its documented z-score.
Give bare numbers.

Below are 5 compounds. Give each one its z-score.
1. CC(=O)Nc1cc(Br)ccc1C(=O)NCc1ccccc1
2. O=C(CS)NCCCCCNC(=O)[C@@H]1C[C@@H]2C(=O)NCC(=O)N2[C@@H]1c1ccc(O)cc1
3. CCC(CC)C(O)C1C=CC2C(=O)N(c3ccccc3)C(=O)C2N1Nc1ccccc1 (stereo not given)
4. CCOC(=O)C[C@H]1[C@H](OC(=O)c2ccc(-c3ccccc3)cc2)[C@@H](NC(=O)c2ccccc2)c2cc(OCCCO)ccc2N1C(=O)Cc1ccc(OC)cc1
5. C=CC1c2cc(O)c(OC)cc2CCN1Cc1cccc(OC(F)(F)F)c1 (stereo not given)

OUT:
[-0.77, -1.43, -3.76, -1.36, -4.91]

---

assay: viability profiling in MM1S myeloma cells – cell-based, resazurin fluorescence, basal, 24 h, PK04 Diversity Set, profiling panel (AID 1174); conditions: higher = more signal, called active from +8 up or from −8 down;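 note: MM1S multiple myeloma cell line; test concentration not given here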
Please provide measured z-score for the entries that follow.
Numbers only.

Here is how some molecules turned out for z-score.
molecule	reported_property	reported_result
O=C(NC1CC1)[C@@H]1c2ccccc2C(=O)N(Cc2cc(F)cc(C(F)(F)F)c2)[C@H]1c1ccc(CO)cc1	z-score	-0.24
CO[C@H]1O[C@H](CO)[C@@H](OC(=O)Nc2cccc(F)c2)[C@H](OC(=O)Nc2ccccc2)[C@H]1OC(=O)Nc1ccccc1	z-score	-4.75
Cc1ccc(S[C@]2(C(=O)O)CC(=O)N(C(C)C)[C@@H]2c2ccc(CO)cc2)cc1	z-score	0.359
COc1ccc(CCNC(=O)[C@@]2(C)c3ccccc3C(=O)N(c3ccc(C)cn3)[C@H]2c2ccc(CO)cc2)cc1	z-score	0.978
CC1CC/C=C\[C@H]2OC34C=CCN(c5ccc6ccccc6c5)C(=O)[C@H]3N(CCO)C(=O)[C@@H]4C2C(=O)O1 (stereo partly specified)	z-score	-1.03
CC(C)Cc1ccc(CN2CC[C@@H](N)C2)cc1	z-score	-1.49
C#CCN1[C@@H](Cc2ccc(O)cc2)C(=O)O[C@H](Cc2ccccc2)[C@@H]1/C=C/C1CC1	z-score	-1.08
C=CCC(OC(C)=O)[C@@H]1[C@@H](N(Cc2ccc(-c3cccc(C(F)(F)F)c3)o2)C(=O)c2cccc3ccccc23)c2cc(OCCCO)ccc2N1C(=O)Cc1ccc2ccccc2c1 (stereo partly specified)	z-score	-0.291

Look up z-score for the entries below, preserving their order.
1. Cc1ccc(C2C3C(=O)CC4C(=O)N(c5ccccc5)C(=O)C4C3CN2S(=O)(=O)c2ccc(C)cc2)cc1 (stereo unspecified)
2. CCCCC(=C=CC[C@@H](O)c1cccc(OCCO)c1)C[C@@H](O)c1ccccn1

OUT:
-0.936
0.0382

Can you give me z-score for all of these, one by one?
1. CC=CC(O)C1C=CC2C(=O)N(C)C(=O)C2N1N(c1ccccc1)c1ccccc1 (stereo unspecified)
2. CN1C(=O)C2C=CC(C(O)c3c(F)cccc3Cl)N(NC(=O)OC(C)(C)C)C2C1=O (stereo unspecified)

OUT:
-0.505
-0.414

Please state z-score for every molecule in the list that follows.
1. NC(=O)N1C(=O)C2C(C1=O)C1C=C(CCCO)C2C(C2CC2)N1Cc1cc2c(cc1Br)OCO2 (stereo unspecified)
2. C=CCN1C(=O)[C@]2(Cc3ccccc3)N=C(c3ccc(OCCCO)cc3)O[C@@H]2c2ccccc21
3. O=C1OCC=C[C@H]2OC34C=CCN(Cn5nnc6ccccc65)C(=O)[C@H]3N(CCCCCO)C(=O)[C@@H]4[C@@H]12 (stereo partly specified)
4. C[N+](C)(C)CCCC[C@@H]1NC(=O)[C@@H]2C[C@H](C(=O)NCCCCCCNC(=O)CS)[C@H](c3ccc(O)cc3)N2C1=O

OUT:
1. -0.264
2. -4.58
3. -0.0233
4. -0.387

---

test: plasmodial surface anion channel blockers, osmotic lysis – cell-based, P. falciparum Indochina, OD700, 1 h, primary screen (AID 1154); conditions: P. falciparum Indochina infected RBC osmotic lysis, higher = more signal, called active from +8 up or from −8 down
Consider the following compounds; for each one, report its z-score.
Give bare numbers.

Example results:
compound	reported_property	reported_result
C=CCOC(=O)[C@H]1[C@@H]2C(=O)O[C@@H](c3ccccc3)[C@@H](c3ccccc3)N2[C@@H](c2ccc(OCCOC(=O)[C@@H]3C[C@@H]4C(=O)N5CCC[C@H]5C(=O)N4[C@@H]3c3cccc(OCCO)c3)cc2)[C@]12C(=O)Nc1ccc(I)cc12	z-score	4.52
COCCCNC(=O)[C@@H]1c2ccccc2C(=O)N(Cc2ccccc2)[C@H]1c1ccc(CO)cc1	z-score	0.481
O=C1C2C=CC(C(O)c3cc(C(F)(F)F)cc(C(F)(F)F)c3)N(Nc3ccccc3)C2C(=O)N1c1ccccc1 (stereo not drawn)	z-score	4.95
CC[C@@H]1C=C(C(=O)O)[C@H](c2cccc3ccccc23)N1S(=O)(=O)c1ccc(C)cc1	z-score	1.26
COCC(=C=CC[C@H](O)c1ccccc1OCCO)CCO	z-score	2.69

For every record below, what is its z-score?
1. C=C(CCCC)/C(=C/C[C@H](OC(C)=O)c1ccccc1OCCO)c1cnc2ccccc2c1
2. O=C(O)[C@H]1C[C@H]2C(=O)N3CCC[C@H]3C(=O)N2[C@H]1c1ccc(O)cc1
3. CC(C)Cc1ccc(CN2CC[C@@H](N)C2)cc1

OUT:
1: 17.5; 2: 1.9; 3: 0.483

---

assay: COS7 lysate on small-molecule microarray, probe aHis, 635 nm (AID 1123); details: COS7 cell lysate, fluorescence, higher = more signal;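 note: z-score combines 667nm fluorescence intensity with signal-to-noise per printed compound spot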
Note to self: values exactly at 1 are MET. So composite z-score at or above 1 is MET, below is NOT MET.

The following molecules have reported results that may help.
molecule	label
CC(C)[Si](C#C[Si](C(C)C)(C(C)C)C(C)C)(O[C@H](C)c1cn(Cc2ccccc2)nn1)C(C)C	NOT MET
CN1C(=O)C2C=CC(C(O)C=Cc3ccc([N+](=O)[O-])cc3)N(Nc3ccccc3)C2C1=O (configuration not stated)	MET
COC(=O)[C@@]1(Cc2ccccc2)[C@H]2c3cc(C(=O)N(C)C)n(Cc4ccc(OC)c(OC)c4)c3C[C@H]2CN1C(=O)c1ccccc1	MET

IN: # bool: composite z-score of COCC(=C=CC[C@H](O)c1ccccc1OCCO)CCO >= 1
OUT: NOT MET

IN: In plain terms: is recorded composite z-score at least 1 for COc1cc2c(cc1OC)CN(C(=O)[C@H]1[C@@H]3C(=O)O[C@@H](c4ccccc4)[C@@H](c4ccccc4)N3[C@@H](c3ccccc3OCCO)[C@]13C(=O)Nc1ccc(C#CCCO)cc13)CC2 ?
OUT: NOT MET

IN: Please check the record COc1ccc(NN2C(C(O)c3ccc(N(C)C)cc3)C=CC3C(=O)N(C4CCCCC4)C(=O)C32)cc1 (configuration not stated) and state if its composite z-score is at or above 1.
OUT: MET

IN: Reported composite z-score reaches at least 1 for NC(=O)[C@@H]1[C@H]2C(=O)O[C@H](c3ccccc3)[C@H](c3ccccc3)N2[C@H](c2ccc(O)cc2)[C@@]12C(=O)Nc1ccc(C#CC3=CCCCC3)cc12 ?
OUT: MET
